As shown below, each of these compounds has a reported IC50 value.
Biological target: PHA depolymerase
Conditions: pH 6.5; read-out: IC50 (concentration of inhibitor at which the enzyme activity was inhibited by 50%)
Kindly answer with a numeric value in mM, unit omitted.

O[C@H](CS)[C@H](O)CS (racemic) = 73

Now let's try a different one.
input: Returns the measured IC50 for the input compound. Input: O=S(=O)(F)Cc1ccccc1 [PMSF, Phenylmethylsulfonyl fluoride]
output: 1.92
